# assayComment: Solubility in water of salts
# measurementParameters: water, solubility in water, hydrochloride salt

>  <chemicalStructure>
CCN(CC)CCS(=O)(=O)CCOP(=O)(N(CCCl)CCCl)N(CCCl)CCCl

>  <solubility>
≥ 50 mg/mL

$$$$

* * *

# assayComment: Solubility in water of salts
# measurementParameters: water, solubility in water, citrate salt
endpointLabel: solubility

>  <chemicalStructure>
CCN(CC)CCS(=O)(=O)CCOP(=O)(N(CCCl)CCCl)N(CCCl)CCCl

>  <testValue>
~19 mg/mL

$$$$

* * *

# System: LNCaP (prostate carcinoma)
# assayComment: Cytotoxicity/Growth Inhibition Assay (CellTiter-Glo), LNCaP
# Format: cell-based
# measurementParameters: Homo sapiens, 96 h, hydrochloride salts, 4 days culture

>  <molecule>
O=P(OCCS(=O)(=O)CCN1CCCCC1)(N(CCCl)CCCl)N(CCCl)CCCl [Compound 5A]

>  <IC50>
140 µM

$$$$
>  <molecule>
CN(C)CCS(=O)(=O)CCOP(=O)(N(CCCl)CCCl)N(CCCl)CCCl [Compound 1A]

>  <IC50>
130 µM

$$$$
>  <molecule>
CC(C)N(CCS(=O)(=O)CCOP(=O)(N(CCCl)CCCl)N(CCCl)CCCl)C(C)C [Compound 3A]

>  <IC50>
16 µM

$$$$
>  <molecule>
O=P(OCCS(=O)(=O)CCN1CCCC1)(N(CCCl)CCCl)N(CCCl)CCCl [Compound 4A]

>  <IC50>
100 µM

$$$$
>  <molecule>
CCN(CC)CCS(=O)(=O)CCOP(=O)(N(CCCl)CCCl)N(CCCl)CCCl [Compound 2A]

>  <IC50>
75 µM

$$$$
